Origin of values: ChEMBL document CHEMBL3885881

- Species: Rattus norvegicus
- Test summary: DrugMatrix - Regimen: Daily Repeat
- Format: toxicity, organism-based, Sprague-Dawley
- Parameters: regimen Daily Repeat, gender Male, age 6-8 weeks
- Experimental context: in vivo, po, 0 mg/kg, 120 h, tissue Blood, route oral GAVAGE, dose level Control, time 5 day, vehicle .5 % CMC
Endpoint label: HEMOGLOBIN (G/DL)
Form entry: value (G/DL) — number only.

In the examples that follow, each entry is paired with its recorded HEMOGLOBIN.
In [3]: df
Out[3]:
                                   compound  test_result
0  CC[C@]1(O)CC[C@H]2[C@@H]3CCC4=CCCC[C@@H]4[C@H]3CC[C@@]21C        14.26
1  CC(=O)O[C@]1(C(C)=O)CC[C@H]2[C@@H]3C=C(Cl)C4=CC(=O)[C@@H]5C[C@@H]5[C@]4(C)[C@H]3CC[C@@]21C [CYPROTERONE ACETATE]        13.63
2  CC(C(=O)O)c1ccc(-c2ccccc2)c(F)c1 (stereo not given) [FLURBIPROFEN]         13.4
3  C[C@@H](O)[C@H]1C(=O)N2C(C(=O)O)=C(S[C@@H]3CN[C@H](C(=O)N(C)C)C3)[C@H](C)[C@H]12 [MEROPENEM]         13.4
4  C[C@]12C/C(=C/O)C(=O)C[C@@H]1CC[C@@H]1[C@@H]2CC[C@@]2(C)[C@H]1CC[C@]2(C)O [OXYMETHOLONE]         14.1

Value of HEMOGLOBIN reported for the compound COc1ccc(/C=C/C(=O)Nc2ccccc2C(=O)O)cc1OC is 13.4

Value of HEMOGLOBIN reported for the compound CCOC(=O)[C@H](CCc1ccccc1)N[C@@H](C)C(=O)N1Cc2ccccc2C[C@H]1C(=O)O is 13.63

Value of HEMOGLOBIN reported for the compound CCCCC1C(=O)N(c2ccccc2)N(c2ccccc2)C1=O [PHENYLBUTAZONE] is 13.98

* * *

- Species: Rattus norvegicus
- Test summary: DrugMatrix - Regimen: Daily Repeat
- Type: toxicity, organism-based, Sprague-Dawley
- Design: regimen Daily Repeat, gender Male, age 6-8 weeks
- Experimental context: in vivo, po, 0 mg/kg, 72 h, tissue Blood, route oral GAVAGE, dose level Control, time 3 day, vehicle .5 % CMC
# key: entry, value: MEAN CORPUSCULAR HEMOGLOBIN CONCENTRATION
Form entry: value (G/DL) — number only.

In the examples that follow, each entry is paired with its recorded MEAN CORPUSCULAR HEMOGLOBIN CONCENTRATION.
>>> print(df.to_string())
                                   molecule  test_result
0      C=C(CC)C(=O)c1ccc(OCC(=O)O)c(Cl)c1Cl        39.44
1  C[C@@H](O)[C@H]1C(=O)N2C(C(=O)O)=C(S[C@@H]3CN[C@H](C(=O)N(C)C)C3)[C@H](C)[C@H]12        36.85
2  CC(C)(Sc1cc(C(C)(C)C)c(O)c(C(C)(C)C)c1)Sc1cc(C(C)(C)C)c(O)c(C(C)(C)C)c1        36.85
3  C[C@@H]1CC[C@H]2[C@@H](C)C(=O)O[C@@H]3O[C@@]4(C)CC[C@@H]1[C@]32OO4         39.4
4       CN1C(=O)CN=C(c2ccccc2)c2cc(Cl)ccc21        38.85
5  CC(=O)O[C@]1(C(C)=O)CC[C@H]2[C@@H]3C=C(Cl)C4=CC(=O)[C@@H]5C[C@@H]5[C@]4(C)[C@H]3CC[C@@]21C [CYPROTERONE ACETATE]        38.98
6        Clc1cc2c(cc1Cl)Oc1cc(Cl)c(Cl)cc1O2        31.32

Lab note: next molecule to report on.
Value of MEAN CORPUSCULAR HEMOGLOBIN CONCENTRATION reported for the molecule CC(C(=O)O)c1ccc(-c2ccccc2)c(F)c1 (stereo not drawn) is 36.85
